Hi there, I'd appreciate the recorded GI50 for every entry that follows.
# System: HCT-116 colon
# measurement-protocol: NCI tumour cell line growth inhibition, 48 h

Please give the measured GI50 for this compound: COC1/C=C/OC2(C)Oc3c(C)c(O)c4c(O)c(c(C=NOC(c5ccccc5)c5ccccc5)c(O)c4c3C2=O)NC(=O)/C(C)=C/C=C/C(C)C(O)C(C)C(O)C(C)C(OC(C)=O)C1C (centres undefined)
970 nM

Fill in the blank: the reported GI50 of COC1=CC(c2ccc[nH]2)=N/C1=C\c1[nH]c(C)c(C)c1CCC(=O)OCc1ccccc1 is ____.
65 nM

Quick check: GI50 of Nc1nc(Cl)nc2c1ncn2C1OC(CO)C(O)C1O (centres undefined) ?
4230 nM

Fill in: GI50 of Cc1nc2cc(Nc3nc(Nc4ccc(F)cc4)nc(N4CCCC4)n3)ccc2n1Cc1ccccc1 is ___
1660 nM

Look at this compound and give its reported GI50. CCOC(=O)Nc1cc(-c2ccc(C)c(NS(C)(=O)=O)c2)nn2c(C)nnc12
1900 nM

Endpoint output: GI50 of O=C(Nc1ccc(Cl)cc1)c1cc2ccccc2cc1OP(=O)(O)O . Value?
3000 nM

I would be grateful if you could share the reported GI50 for CC/C(=C(/CC)c1ccc(O)cc1)c1ccc(O)cc1 .
4920 nM

Which measured GI50 value corresponds to C1C[S][Ge]2([S]CCS1)[S]CCSCC[S]2 ?
> 100000 nM

Name the recorded GI50 for [Au+].c1c[n-]cn1.c1ccc([PH+](c2ccccc2)c2ccccc2)cc1 .
5190 nM

----------
# Test system: HT29 colon
# measurement-protocol: NCI tumour cell line growth inhibition, 48 h
measure: TGI

Entry CCCCCCn1c2c(c3c(O)cccc31)C(=O)c1ccccc1-2 : reported TGI = ?
> 100 µM

What value of TGI has been reported for the following compound? O=c1[nH]c(-c2ccc([N+](=O)[O-])cc2)nc2ccc(Cl)cc12
> 100 µM

// TGI lookup, key: O=C(O)c1c[nH]c2c(ccc3[nH]cc(C(=O)O)c(=O)c32)c1=O
> 100 µM

Bench note: what TGI did N#Cc1c(O)c(C=O)c(=O)n2c1[nH]c1ccccc12 show?
> 100 µM

Fill in the blank: the reported TGI of O=c1sc(-c2nc3ccccc3[nH]2)c(/N=C/c2ccccc2)n1-c1ccccc1 is ____.
> 100 µM

May I ask what TGI has been recorded for Nc1nc(N)c2nc(CNc3ccc(C(=O)NC(CCNC(=O)c4ccccc4C(=O)O)C(=O)O)cc3)cnc2n1 (stereo unspecified) ?
> 100 µM

Can you share its TGI? I mean this compound: CP(=O)(O)C(N)c1ccccc1 (stereo unspecified)
> 100 µM

Quick one: TGI of COc1cc(/C=C/c2ccc(S(N)(=O)=O)cc2)cc(OC)c1 ?
33.2 µM

// returns reported TGI for input CC1=C(C(=O)NCCCN(CCO)CCO)CC(C(=O)NCCCN(CCO)CCO)=C(C)N1
> 100 µM

Fill in: TGI of Cc1csc2c(=O)n(COCc3ccccc3)c(=O)[nH]c12 is ___
> 100 µM

Requested read-out: TGI. Entry: CC(C)(N)C(=O)N[C@@H]1C(=O)N2[C@@H]1SC(C)(C)[C@@H]2C(=O)O
> 100 µM

Which TGI value belongs to COc1ccccc1[C@@H]1CCC2CC[C@@H](c3ccccc3OC)[N+]21Cc1ccccc1 (stereo partly specified) ?
10.1 µM

Quick one: TGI of CSc1nc(SC)c2c(C)cn(C3OC(C)C(O)C(O)C3O)c2n1 (stereo unspecified) ?
> 100 µM

Which TGI value is on record for C[C@]12CCC(=O)C=C1CC[C@@H]1C2CC[C@@]2(C)C1CC[C@@H]2OC(=O)C12OC1CCC2=O (stereo partly specified) ?
33.4 µM

Give the measured TGI of COc1cc2c(cc1OC)-c1[nH]c3ccc([N+](=O)[O-])cc3c1CC(=O)N2 .
> 100 µM

What measured TGI goes with Cc1nc(-n2nc(-c3ccccc3)cc2-c2ccccc2)sc1C(/C=C/c1ccc([N+](=O)[O-])cc1)=N/NC(N)=S ?
> 100 µM

TGI for CC1(C)OC2[C@@H](CO[C@@]3([C@H]4OC(C)(C)O[C@@H]4CO)OC(C)(C)O[C@@H]23)O1 (stereo partly specified) ?
> 100 µM

Given the entry CN(C)CCCN=c1c2ccccc2n(C)c2[nH]c(=O)n(C)c(=O)c12 , report its measured TGI.
39.2 µM

Which measured TGI value corresponds to c1ccc(Sc2nc(Sc3ccccc3)nc(Sc3ccccc3)n2)cc1 ?
> 100 µM

May I ask what TGI has been recorded for Cc1cc(N)c2cc(NC(=O)Nc3ccc4nc(C)cc(N)c4c3)ccc2n1 ?
> 100 µM

Suppose we examine the compound CCCCC1N=CNc2c1ccc1c2[nH]c2ccccc21 (stereo unspecified) ; what TGI value has been reported?
3.95 µM

----------
# System: MALME-3M melanoma
# measurement-protocol: NCI tumour cell line growth inhibition, 48 h
measure: GI50

Give the measured GI50 of CCOC(=O)Nc1cc(-c2ccc(C)c(NS(C)(=O)=O)c2)nn2c(C)nnc12 .
1.11 µM

Look up GI50 for this compound: O=C(Nc1nc(-c2ccccc2Cl)cs1)c1cc(-c2ccc(Cl)cc2)nc2ccc(Cl)cc12
4.77 µM

# lookup: GI50 of CN1CCN(Cn2nc(-c3cc(F)c(Cl)cc3Cl)oc2=S)CC1
26.4 µM

----------
# Test system: MDA-N
# measurement-protocol: NCI tumour cell line growth inhibition, 48 h
Exercise: for every item that follows, state its recorded TGI.

// TGI lookup, key: CC(=O)OC12OC(C)(C3C(=O)N(c4ccccc4)C(=O)C31)N(c1ccccc1)C2=O (stereo not given)
> 100 µM

Given the molecule COc1c(C)c(C/C=C(\C)CCCCO)c(OC)c2ccccc12 , what is its reported TGI?
> 100 µM

Could you tell me which TGI is on file for Nc1nc(N)c2nc(CNc3ccc(C(=O)NC(CCNC(=O)c4ccccc4C(=O)O)C(=O)O)cc3)cnc2n1 (stereo not given) ?
> 100 µM

Given the entry CC(=O)CC12NC(=O)N(C)N=C1N(C)C(=O)N(C)C2=O (stereo not given) , report its measured TGI.
43.3 µM

Looking for the measured TGI of O=C(c1cccnc1)N1N=C(c2ccc3c(c2)OCO3)CC1(O)c1cc(F)c(Cl)cc1Cl (stereo not given) , can you help?
> 100 µM

If you can, please state the reported TGI value of O=C1CCc2ccccc2O1 .
> 100 µM

What value of measured TGI is listed for O=C1c2ccccc2C(=O)c2c(NCC3CO3)cccc21 (stereo not given) ?
23.7 µM

What value of measured TGI is listed for N#Cc1c(O)c(C=O)c(=O)n2c1[nH]c1ccccc12 ?
> 100 µM

Entry COC1C(C)OC(OC2CC(C)(O)Cc3cc4c(c(O)c32)C(=O)c2c(O)cc3c(c2C4=O)OC2OC3(C)C(O)C(N(C)C)C2O)C(OC)C1(C)OC (stereo not given) : reported TGI = ?
0.00187 µM

Which TGI is listed for CCN(CCN(CC)C(=O)NC)C(=O)NC ?
> 100 µM

Would you kindly share the measured TGI for O=C1C=CC(=O)[C@H]2C3C=CC(C4C3C3(Cl)C(Cl)=C(Cl)[C@]4(Cl)C3(Cl)Cl)[C@@H]12 (stereo not given in full) ?
15.8 µM

Value lookup for TGI; key = O=C1C(=O)N(C23CC4CC(CC(C4)C2)C3)C(=S)N1c1ccccc1
> 100 µM

Query: TGI; subject: Cn1c(=O)oc2cc(C(=S)N3CCCCC3)ccc21
> 100 µM

Returns the measured TGI for the input molecule. Input: CSc1nc(SC)c2c(C)cn(C3OC(C)C(O)C(O)C3O)c2n1 (stereo not given)
> 100 µM

Name the reported TGI value associated with the molecule COC(=O)C1Cc2c([nH]c3ccccc23)-c2[nH]c3ccccc3c2CC(NC(C)=O)C(=O)N2CCCC2C(=O)N1 (stereo not given)
> 100 µM

Which measured TGI value corresponds to O=c1cc(NNc2cccc(F)c2)[nH]c(=S)[nH]1 ?
> 100 µM

Query: TGI; subject: Cc1cc2nc(CC(C(F)(F)F)C(F)(F)F)oc2cc1C
5.85 µM

Which TGI is listed for CCc1n[nH]c(=O)n1N=C(c1ccccc1)c1ccccc1 ?
> 100 µM

Look up TGI: COc1ccc2nc3c([N+](=O)[O-])ccc(NCCCN(C)C)c3c(N)c2c1
3.47 µM

Which TGI value is on record for CP(=O)(O)C(N)c1ccccc1 (stereo not given) ?
> 100 µM

Which TGI is listed for COC(=O)[C@H](C)[C@@H]1CC[C@](C)(CCC2=C(C)CCCC2(C)C)OO1 ?
> 25 µM

State the recorded TGI for this entry: O=C(O)c1c[nH]c2c(ccc3[nH]cc(C(=O)O)c(=O)c32)c1=O
> 100 µM

Item under review: Cc1cc(N)c2cc(NC(=O)Nc3ccc4nc(C)cc(N)c4c3)ccc2n1 . Reported TGI?
> 100 µM

# TGI lookup, item CCOC(=O)CCC(C(=O)OCC)n1nnc2ccc(Nc3c(C)[n+]([O-])c4cc(F)c(OCC)cc4[n+]3[O-])cc21 (stereo not given)
> 100 µM

So what does the record say about TGI for CCOP(=O)(OCC)C(C)(CC)/N=C(\N)NC#N (stereo not given) ?
> 100 µM

Given Cc1cc2c(cc1-c1cc3c(cc1C)C(C(C)C)=C(O)C(=O)/C3=C\Nc1ccccn1)/C(=C/Nc1ccccn1)C(=O)C(O)=C2C(C)C , state its recorded TGI.
> 100 µM

Entry C=C(C)C1CCC2(C(=O)O)CCC3(C)C(CCC4C5(C)CCC(O)C(C)(C)C5CCC43C)C12 (stereo not given) has what TGI?
54.9 µM

What does the data say about its TGI? Entry: CN(C)C1(c2cc3ccccc3s2)CCCCC1
> 100 µM

Returns the measured TGI for the input molecule. Input: O=C(CBr)NCCc1c[nH]c2ccccc12
4.44 µM

I'd like to know its TGI. The molecule in question is C=CC(=C)CCC(Br)C(C)(C)Cl (stereo not given)
> 100 µM

These measurements were taken from PubChem BioAssay (NCI).
